System: HIV-1 IIIB
Experiment: HIV growth inhibition assay in H9 lymphocytes
Conditions: human, SI (selective index) = CC50/EC50, HIV-1 IIIB in H9 cells
Listed here are compounds together with their documented selectivity ratio at 6 days.

Please review the following examples before continuing.
- Compound: "Cc1cc(Br)cc(C)c1Oc1cc(Nc2ccc(C#N)cc2)c(N)cc1[N+](=O)[O-] [Compound 36]"
  selectivity ratio at 6 days: "> 2800"
- Compound: "Cc1cccc(C)c1Oc1cc(Nc2ccc(C#N)cc2)c([N+](=O)[O-])cc1[N+](=O)[O-] [Compound 20]"
  selectivity ratio at 6 days: "113 to 313"
- Compound: "Cc1cc(Br)cc(C)c1Oc1ccc([N+](=O)[O-])c(Nc2ccc(C#N)cc2)c1 [Compound 24]"
  selectivity ratio at 6 days: "113 to 313"

# next compound below
IN: State the recorded selectivity ratio at 6 days for this entry: Cc1cc(C)c(Oc2cc(Nc3ccc(C#N)cc3)c([N+](=O)[O-])cc2[N+](=O)[O-])c(C)c1 [Compound 22]
OUT: 113 to 313
